Values compiled from PubChem BioAssay (EPA / NIEHS).

assay-method-text: CCTE_Shafer_MEA_acute_per_network_burst_spike_number_std: CCTE's Neural Acute Assay for Standard Deviation of Number of Spikes in a Network Burst, Shafer Lab (AID 2284020);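 also: fitted for decrease in spike-number SD versus DMSO so actives lower it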
Calls of active or inactive are those of the source. The calls were made as follows: active = hit-call score of the fitted dose curve at least 0.9, where 1 is the maximum; inactive = score below 0.9.
Choose one outcome from this list and give only that: active, inactive

Would you please look over these solved cases?
[[record]]
compound = "ClCCOCCCl"
assigned_label = "inactive"

[[record]]
compound = "CCCCOC(=O)c1ccccc1C(=O)OCc1ccccc1"
assigned_label = "active"

[[record]]
compound = "O=P(OCCCl)(OCCCl)OCCCl"
assigned_label = "inactive"


Query string: Record lookup: outcome of this test for ClC1=C(Cl)[C@]2(Cl)[C@H]3[C@H]([C@@H]4C=C[C@H]3C4)[C@@]1(Cl)C2(Cl)Cl ?
Result string: inactive

Query string: Record lookup: outcome of this test for [Cl-].[Cl-].[Hg+2] ?
Result string: inactive

Query string: Record lookup: outcome of this test for O=[N+]([O-])C(Br)(CO)CO ?
Result string: inactive

Query string: Record lookup: outcome of this test for O=C(N[C@H](c1ccccc1)[C@@H]1CN2CCC1CC2)c1c(Cl)ccc(C(F)(F)F)c1Cl ?
Result string: inactive

Query string: Record lookup: outcome of this test for N#CC(Br)Br ?
Result string: inactive

Query string: Record lookup: outcome of this test for CCCCCCCCn1sccc1=O ?
Result string: active

###

assayed-system: rat Monoamine Oxidase, MAO-B, Peripheral (MAOBP), Maob (gene 25750)
assay-method-text: NVS_ENZ_rMAOBP: NovaScreen (NVS) Enzymatic Assay for rat Monoamine Oxidase, MAO-B, Peripheral (MAOBP) (AID 2283242)
Results filed as inconclusive are left out. Activity calls are given as the source filed them. The calls were made as follows: active = hit-call score of the fitted dose curve at least 0.9, where 1 is the maximum; inconclusive = response in the unintended direction; inactive = score below 0.9.
Choose one outcome from this list and give only that: 1.0 = active, 0.0 = inactive

[[record]]
chemical_string = "CN(C)c1ccc(C(=O)c2ccc(N(C)C)cc2)cc1"
assigned_label = 1.0

[[record]]
chemical_string = "CO[C@@H]1[C@H](OC(=O)NC(=O)CCl)CC[C@]2(CO2)[C@H]1[C@@]1(C)O[C@@H]1CC=C(C)C"
assigned_label = 0.0


Query string: Record lookup: outcome of this test for CC(C)(O)c1cnn2c(-c3ccc(F)c(-c4c(F)cccc4C#N)c3)cnc2n1 ?
Result string: 0.0

Query string: Record lookup: outcome of this test for Nc1cc(Cl)cc(C(=O)O)c1Cl ?
Result string: 0.0

Query string: Record lookup: outcome of this test for Cc1cc(N=Nc2ccccc2C)ccc1N ?
Result string: 0.0

Query string: Record lookup: outcome of this test for CCOC(=O)[C@]1(c2ccccc2)Oc2ccccc2[C@@H]1N ?
Result string: 1.0

Query string: Record lookup: outcome of this test for Cn1cc(-c2ccccc2)c(=O)c(-c2cccc(C(F)(F)F)c2)c1 ?
Result string: 0.0

Query string: Record lookup: outcome of this test for Clc1ccc(Cl)c(Cl)c1 ?
Result string: 0.0

Query string: Record lookup: outcome of this test for Nc1ccc(N=Nc2ccccc2)cc1 ?
Result string: 0.0

###

Read-out: Interleukin-8 (IL8), CXCL8 (gene 3576)
assay-method-text: BSK_SAg_IL8: BioMAP Diversity Plus: SAg Assay for Interleukin-8 (IL8) Biomarker Activity (AID 2283094)
test-settings: primary human HUVEC with PBMC; actives raise or lower the signal
Activity calls are given as the source filed them. The calls were made as follows: active = hit-call score of the fitted dose curve at least 0.9, where 1 is the maximum; inactive = score below 0.9.
Choose one outcome from this list and give only that: class 1 = active, class 0 = inactive

Would you please look over these solved cases?
[[record]]
compound = "c1ccc2c(c1)-c1cccc3cccc-2c13"
assigned_label = "class 1"

[[record]]
compound = "O=P(OCCCl)(OCCCl)OCCCl"
assigned_label = "class 0"

[[record]]
compound = "CCCCCCCCCCCCCN1CC(C)OC(C)C1 (stereo not drawn)"
assigned_label = "class 0"

[[record]]
compound = "CN(C)C(=O)Nc1ccc(Cl)cc1"
assigned_label = "class 0"

[[record]]
compound = "CCC(C)c1ccc(O)cc1 (stereo not drawn)"
assigned_label = "class 0"

[[record]]
compound = "CC(C)(OOC(C)(C)c1ccccc1)c1ccccc1"
assigned_label = "class 1"

[[record]]
compound = "Nc1ccc(Cc2ccc(N)cc2)cc1"
assigned_label = "class 0"

[[record]]
compound = "C1=Cc2cccc3cccc1c23"
assigned_label = "class 0"

[[record]]
compound = "CCN(CC)N=O"
assigned_label = "class 0"

[[record]]
compound = "CCCCC(CC)COC(=O)c1ccc(C(=O)OCC(CC)CCCC)c(C(=O)OCC(CC)CCCC)c1 (stereo not drawn)"
assigned_label = "class 0"


Query string: Record lookup: outcome of this test for CCCCOC(=O)c1ccccc1C(=O)OCc1ccccc1 ?
Result string: class 1

###

assay-method-text: IUF_NPC2-5_cytotoxicity_120hr: Cytotoxicity Assessment at 120 hours in the Leibniz Research Institute for Environmental Medicine (IUF) Neural Progenitor Cell Migration and Differentiation Assay (NPC2-5) (AID 2284307);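 as to AC50: LDH released into supernatant as membrane damage marker via resorufin fluorescence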
Calls of active or inactive are those of the source. How the source made its calls: active means hit-call score of the fitted dose curve at least 0.9, where 1 is the maximum; inconclusive means response in the unintended direction; inactive means score below 0.9.
value-type: AC50

Look over these answered cases.
[[record]]
molecule = "CCCCOC(=O)c1ccccc1C(=O)OCc1ccccc1"
value_type = "AC50"
assay_result = "inactive"

[[record]]
molecule = "CCC[CH2][Sn]([Cl])([CH2]CCC)[CH2]CCC"
value_type = "AC50"
assay_result = "455 nM (active)"

[[record]]
molecule = "CC(C)(C)C(O)(CCc1ccc(Cl)cc1)Cn1cncn1 (stereo not given)"
value_type = "AC50"
assay_result = "inactive"

[[record]]
molecule = "O=P(OCCCl)(OCCCl)OCCCl"
value_type = "AC50"
assay_result = "inactive"


Please find the next molecule below.
Query string: Dear colleague, please send me the reported AC50 for OCCOCCO when you can.
Result string: inactive

###

Read-out: solute carrier (SLC22A1), SLC22A1 (gene 6580)
assay-method-text: LTEA_HepaRG_SLC22A1: Life Technologies and Expression Analysis (LTEA) Assay for solute carrier (SLC22A1) using HepaRG (AID 2283524)
test-settings: mRNA level, 48 h; actives raise or lower the signal
Calls of active or inactive are those of the source. Rule for the calls: active = hit-call score of the fitted dose curve at least 0.9, where 1 is the maximum; inactive = score below 0.9.
Choose one outcome from this list and give only that: true for active, false for inactive

Query string: Record lookup: outcome of this test for CC(C)(O)c1cnn2c(-c3ccc(F)c(-c4c(F)cccc4C#N)c3)cnc2n1 ?
Result string: true

Query string: Record lookup: outcome of this test for [O-][Cl+]O ?
Result string: false

Query string: Record lookup: outcome of this test for CCOc1cccc(C2(N3CCN(c4ccccc4)CC3)CCC(C)CC2)c1 (stereo not drawn) ?
Result string: false

###

assay-method-text: BSK_3C_Vis: BioMAP Diversity Plus: 3C Assay for Morphology Visualization (AID 2283025);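 also: fitted both ways so gain or loss versus DMSO counts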
test-settings: primary human endothelial cells (HUVEC)
Calls of active or inactive are those of the source. Rule for the calls: active = hit-call score of the fitted dose curve at least 0.9, where 1 is the maximum; inactive = score below 0.9.
Choose one outcome from this list and give only that: t for active, f for inactive

[[record]]
compound = "CCN(CC)N=O"
assigned_label = "f"

[[record]]
compound = "c1ccc(N=Nc2ccccc2)cc1"
assigned_label = "f"

[[record]]
compound = "N#CC(Br)Br"
assigned_label = "f"

[[record]]
compound = "ClC1=C(Cl)[C@]2(Cl)[C@H]3[C@H]([C@@H]4C=C[C@H]3C4)[C@@]1(Cl)C2(Cl)Cl"
assigned_label = "f"

[[record]]
compound = "COP(=S)(OC)SCN1C(=O)c2ccccc2C1=O"
assigned_label = "f"


Query string: Record lookup: outcome of this test for CCCCCCCCCCCCCN1CC(C)OC(C)C1 (stereo not drawn) ?
Result string: f

Query string: Record lookup: outcome of this test for CC(C)(OOC(C)(C)c1ccccc1)c1ccccc1 ?
Result string: t

Query string: Record lookup: outcome of this test for CCOc1cccc(C2(N3CCN(c4ccccc4)CC3)CCC(C)CC2)c1 (stereo not drawn) ?
Result string: f

Query string: Record lookup: outcome of this test for CNC(=O)Oc1cccc2c1OC(C)(C)C2 ?
Result string: f

Query string: Record lookup: outcome of this test for CCN(CC)CCO ?
Result string: f

Query string: Record lookup: outcome of this test for CN(C)[C@@H]1C(=O)C(C(N)=O)=C(O)[C@@]2(O)C(=O)C3=C(O)c4c(O)cccc4[C@@](C)(O)[C@H]3C[C@@H]12 ?
Result string: f

Query string: Record lookup: outcome of this test for O=C1CCCO1 ?
Result string: t

Query string: Record lookup: outcome of this test for Clc1ccc(C(c2ccc(Cl)cc2)C(Cl)(Cl)Cl)cc1 ?
Result string: t

###

assayed-system: CCAAT/enhancer-binding protein beta (Homo sapiens) (UniProt P17676)
Sequence (P17676 whole entry, looked up): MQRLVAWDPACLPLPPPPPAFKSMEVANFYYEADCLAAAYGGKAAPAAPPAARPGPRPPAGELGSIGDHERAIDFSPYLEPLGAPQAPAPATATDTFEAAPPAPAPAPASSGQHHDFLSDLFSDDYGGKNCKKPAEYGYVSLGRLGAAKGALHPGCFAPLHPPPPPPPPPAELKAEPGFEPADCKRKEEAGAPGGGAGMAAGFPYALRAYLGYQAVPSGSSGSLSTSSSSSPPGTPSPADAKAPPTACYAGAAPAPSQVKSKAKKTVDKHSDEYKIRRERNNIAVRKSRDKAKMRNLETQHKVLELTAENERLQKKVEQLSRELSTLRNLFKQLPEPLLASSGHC
assay-method-text: ATG_C_EBP_CIS: Attagene CIS-FACTORIAL HepG2 Assay for human CCAAT/Enhancer Binding Protein (C/EBP) beta (AID 2282927)
test-settings: HepG2 Attagene cis-factorial transcription factor reporter; actives raise or lower the signal
Calls of active or inactive are those of the source. How the source made its calls: active means hit-call score of the fitted dose curve at least 0.9, where 1 is the maximum; inactive means score below 0.9.
value-type: AC50

[[record]]
molecule = "Cc1cccc(N)c1N"
assayed_system = "CCAAT/enhancer-binding protein beta (Homo sapiens) (UniProt P17676)"
assay_result = "inactive"

[[record]]
molecule = "COC(=O)c1ccccc1N"
assayed_system = "CCAAT/enhancer-binding protein beta (Homo sapiens) (UniProt P17676)"
assay_result = "inactive"

[[record]]
molecule = "Clc1ccc(C(c2ccc(Cl)cc2)C(Cl)(Cl)Cl)cc1"
assayed_system = "CCAAT/enhancer-binding protein beta (Homo sapiens) (UniProt P17676)"
assay_result = "inactive"

[[record]]
molecule = "c1ccc(C2CO2)cc1 (stereo not drawn)"
assayed_system = "CCAAT/enhancer-binding protein beta (Homo sapiens) (UniProt P17676)"
assay_result = "inactive"

[[record]]
molecule = "O=C(Nc1ccccc1)c1ccccc1I"
assayed_system = "CCAAT/enhancer-binding protein beta (Homo sapiens) (UniProt P17676)"
assay_result = "inactive"

[[record]]
molecule = "CCCCCCCCn1sccc1=O"
assayed_system = "CCAAT/enhancer-binding protein beta (Homo sapiens) (UniProt P17676)"
assay_result = "inactive"

[[record]]
molecule = "Clc1ccc(C(c2ccc(Cl)cc2)C(Cl)Cl)cc1"
assayed_system = "CCAAT/enhancer-binding protein beta (Homo sapiens) (UniProt P17676)"
assay_result = "54.8 µM (active)"

[[record]]
molecule = "O=[N+]([O-])C(Br)(CO)CO"
assayed_system = "CCAAT/enhancer-binding protein beta (Homo sapiens) (UniProt P17676)"
assay_result = "156 µM (active)"

[[record]]
molecule = "Nc1ccc(Oc2ccc(N)cc2)cc1"
assayed_system = "CCAAT/enhancer-binding protein beta (Homo sapiens) (UniProt P17676)"
assay_result = "inactive"

[[record]]
molecule = "CCCCCOC(=O)c1ccccc1C(=O)OCCCCC"
assayed_system = "CCAAT/enhancer-binding protein beta (Homo sapiens) (UniProt P17676)"
assay_result = "inactive"


Query string: State, for CCAAT/enhancer-binding protein beta (Homo sapiens) (UniProt P17676), measured AC50 of the molecule listed here: Oc1ccc2ccc3cccc4ccc1c2c34
Result string: inactive

Query string: State, for CCAAT/enhancer-binding protein beta (Homo sapiens) (UniProt P17676), measured AC50 of the molecule listed here: CCCCCCCCOC(=O)c1ccc(C(=O)OCCCCCCCC)c(C(=O)OCCCCCCCC)c1
Result string: inactive

Query string: State, for CCAAT/enhancer-binding protein beta (Homo sapiens) (UniProt P17676), measured AC50 of the molecule listed here: O=[N+]([O-])c1ccc(Oc2ccc(Cl)cc2Cl)cc1
Result string: inactive
